- MEASURED_TARGET: 5-hydroxytryptamine receptor 1A (Homo sapiens)
- Sequence (P08908 whole entry): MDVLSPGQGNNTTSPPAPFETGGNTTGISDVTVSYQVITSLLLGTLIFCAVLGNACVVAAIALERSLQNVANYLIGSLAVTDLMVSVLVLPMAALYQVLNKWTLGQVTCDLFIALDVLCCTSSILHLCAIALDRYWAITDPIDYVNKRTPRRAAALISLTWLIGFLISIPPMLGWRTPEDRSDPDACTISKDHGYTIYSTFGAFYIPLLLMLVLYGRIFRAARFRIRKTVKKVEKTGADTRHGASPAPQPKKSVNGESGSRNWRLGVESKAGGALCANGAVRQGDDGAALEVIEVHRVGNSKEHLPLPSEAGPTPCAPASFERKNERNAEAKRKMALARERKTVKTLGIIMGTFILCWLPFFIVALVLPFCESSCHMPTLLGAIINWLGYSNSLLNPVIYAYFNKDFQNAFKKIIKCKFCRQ
pKi: −log10 of the molar value.
PARAMETER_MEASURED: pKi

Recorded pKi, per entry:
{"COMPOUND": "O=C1Cc2ccccc2N1CC/C=C/CCN1CC[C@H]2CCCC[C@@H]2C1 (racemic)", "DATA_VALUE": "< 6.00"}
{"COMPOUND": "O=C1Cc2ccccc2N1CC/C=C/CCN1CCc2ccccc2C1", "DATA_VALUE": "< 6.00"}
{"COMPOUND": "O=C1Cc2ccccc2N1CCCCCCCN1CCc2ccccc2C1", "DATA_VALUE": "< 6.00"}
{"COMPOUND": "O=C1Cc2ccccc2N1CCCCCCN1CCc2ccccc2C1", "DATA_VALUE": 6.24}
{"COMPOUND": "O=C1Cc2ccccc2N1CCCCN1CC[C@H]2CCCC[C@@H]2C1 (racemic)", "DATA_VALUE": 6.33}

// pKi lookup, compound = O=C1Cc2ccccc2N1CCCCCCCN1CC[C@H]2CCCC[C@@H]2C1 (racemic) , result: < 6.00

====

- MEASURED_TARGET: 5-hydroxytryptamine receptor 7 (Homo sapiens)
- Sequence (P34969 whole entry): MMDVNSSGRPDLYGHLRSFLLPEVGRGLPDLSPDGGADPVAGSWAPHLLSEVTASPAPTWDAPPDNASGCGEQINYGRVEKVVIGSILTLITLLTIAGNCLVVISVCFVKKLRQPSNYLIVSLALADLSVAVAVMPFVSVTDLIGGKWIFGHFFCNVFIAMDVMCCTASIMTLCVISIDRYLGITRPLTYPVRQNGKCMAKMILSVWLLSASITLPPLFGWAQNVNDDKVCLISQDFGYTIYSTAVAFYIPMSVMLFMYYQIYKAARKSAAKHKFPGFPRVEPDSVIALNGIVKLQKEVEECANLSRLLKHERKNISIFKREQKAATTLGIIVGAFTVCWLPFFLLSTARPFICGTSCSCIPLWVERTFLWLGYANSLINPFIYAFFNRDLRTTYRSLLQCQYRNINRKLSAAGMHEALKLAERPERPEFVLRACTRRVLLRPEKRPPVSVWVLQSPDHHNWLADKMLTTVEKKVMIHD
- ASSAY_DETAILS: Agonist activity at human 5-HT7 expressed in HEK-293 cells assessed as increase in cAMP level after 45 mins by HTRF assay
PARAMETER_MEASURED: EC50
Provide a numeric answer, followed by its unit.

{"MOLECULE": "O=C1Cc2ccccc2N1CC/C=C/CCN1CC[C@H]2CCCC[C@@H]2C1 (racemic)", "PARAMETER_MEASURED": "EC50", "DATA_VALUE": "60 nM"}

Attention now turns to another entry.
Response field EC50 (5-hydroxytryptamine receptor 7 (Homo sapiens)) for item O=C1Cc2ccccc2N1CC/C=C/CCN1CCc2ccccc2C1 : 230 nM
